Experiment: yeast V-ATPase proton transport modulators, S. cerevisiae, pHLuorin, HTS validation (AID 504600);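 note: plate controls were DMSO for no effect and reference compound for full effect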
Conditions: S. cerevisiae pHLuorin cytosolic pH, at 10 µM, active compounds read high
Calls of active or inactive are those of the source. Cut-off read from the data, not from the text of the source: active = response above about 15%; inactive = the rest.
List of response values.

COMPOUND: CCCC(=O)OCC[N+](C)(C)C
response: 5.81% (inactive)
--
COMPOUND: COc1cc2c3cc1Oc1cc(ccc1O)C[C@@H]1c4c(cc(OC)c(O)c4Oc4ccc(cc4)C[C@H]3N(C)CC2)CCN1C
response: 1.91% (inactive)
--
COMPOUND: c1ccc2c(c1)OCC(C1=NCCN1)O2 (stereo not drawn)
response: 3.01% (inactive)
--
COMPOUND: Cc1cc(OCc2cc(C(=O)O)oc2C)c2c3c(c(=O)oc2c1)CCCC3
response: -0.71% (inactive)
--
COMPOUND: C#C[C@]1(O)CC[C@H]2[C@@H]3CCC4=CC(=O)CC[C@]4(C)[C@H]3CC[C@@]21C
response: -3.36% (inactive)
--
COMPOUND: C[N+](C)(C)Cc1ccccc1
response: -0.83% (inactive)
--
COMPOUND: CCn1ccnc1CN1CCCC(C(=O)c2cc(F)ccc2OC)C1 (stereo not drawn)
response: 1.54% (inactive)
--
COMPOUND: CCn1c(O)c(C(=O)CC2NCCc3ccccc32)c(=O)n(CC)c1=S (stereo not drawn)
response: 1.26% (inactive)
--
COMPOUND: CN1C(=O)CN=C(c2ccc(Cl)cc2)c2cc(Cl)ccc21
response: 4.65% (inactive)
--
COMPOUND: CCOC(=O)C(C)Oc1cc(C)cc2oc(=O)c3c(c12)CCCC3 (stereo not drawn)
response: -8.97% (inactive)
--
COMPOUND: C[C@H](O)[C@H]1CC[C@H]2[C@@H]3CCC4=CC(=O)CC[C@]4(C)[C@H]3CC[C@]12C
response: -6.77% (inactive)
--
COMPOUND: CC(C)[N+](C)(CCC(C(N)=O)(c1ccccc1)c1ccccc1)C(C)C
response: 0.78% (inactive)
--
COMPOUND: O=c1[nH]c(=S)n(-c2ccccc2)c(O)c1/C=N/N1CCCCC1c1cccnc1 (stereo not drawn)
response: 4.77% (inactive)

* * *

Recorded inhibition for the following molecules
Target: Botulinum neurotoxin type A (Clostridium botulinum)
Assay: BoNT/A light chain protease inhibitors, biochemical, multiplex microsphere flow cytometry, validation set (AID 588460)
Conditions: at 10 µM, active compounds read high
The source made the active and inactive calls. How the calls were made is not given here.
METRIC: inhibition

MOLECULE: Cc1ccc(/C=N/NC(=O)C2(C)CC2(Br)Br)cc1 (stereo not drawn)
METRIC: inhibition
OBSERVED RESULT: -0.4% (inactive)
//
MOLECULE: COc1cc2[nH]c3c(=O)n(CCN4CCOCC4)cnc3c2cc1OC
METRIC: inhibition
OBSERVED RESULT: 0.1% (inactive)
//
MOLECULE: CC(C)N1C(=O)/C(=C\c2nc3ccccc3c(=O)[nH]2)c2ccccc21
METRIC: inhibition
OBSERVED RESULT: -0.6% (inactive)
//
MOLECULE: CCOC(=O)[C@H](CCc1ccccc1)N[C@@H](C)C(=O)N1CCC[C@H]1C(=O)O
METRIC: inhibition
OBSERVED RESULT: 0.2% (inactive)
//
MOLECULE: O=C(NCCN1CCN(c2ccccc2)CC1)c1cccc(Br)c1
METRIC: inhibition
OBSERVED RESULT: -2.3% (inactive)
//
MOLECULE: CCC1(c2ccccc2)C(=O)N(COC)C(=O)N(COC)C1=O
METRIC: inhibition
OBSERVED RESULT: -0.2% (inactive)
//
MOLECULE: COc1ccc(C2c3c(n[nH]c3C)CC(C)(O)C2C(C)=O)cc1OC (stereo not drawn)
METRIC: inhibition
OBSERVED RESULT: 0.1% (inactive)
//
MOLECULE: CC(=O)OC1C2CCC1C(N1CCCC1)CC2 (stereo not drawn)
METRIC: inhibition
OBSERVED RESULT: -0.8% (inactive)
//
MOLECULE: COc1ccc(N2CCN(C(=S)NCc3ccccc3)CC2)cc1
METRIC: inhibition
OBSERVED RESULT: -0.6% (inactive)
//
MOLECULE: CCOC(=O)C1=C(C)OC(N)=C(C(=O)OCC)[C@@]12C(=O)N(CC(N)=O)c1ccccc12
METRIC: inhibition
OBSERVED RESULT: -0.3% (inactive)
//
MOLECULE: O=C(CS(=O)(=O)c1ccccc1)c1ccc2c(c1)OCCO2
METRIC: inhibition
OBSERVED RESULT: 0.7% (inactive)
//
MOLECULE: COc1ccccc1OS(=O)(=O)c1ccc(NC(C)=O)cc1
METRIC: inhibition
OBSERVED RESULT: 1.2% (inactive)
//
MOLECULE: S=C(NCc1ccccc1)NCc1cccc(CNC(=S)NCc2ccccc2)c1
METRIC: inhibition
OBSERVED RESULT: 0.7% (inactive)
//
MOLECULE: C[N+]1(C)CCN(c2ccccc2)CC1
METRIC: inhibition
OBSERVED RESULT: -1% (inactive)
//
MOLECULE: CC(C)NC(=O)c1ccc(C(C)C)cc1
METRIC: inhibition
OBSERVED RESULT: -1.2% (inactive)
//
MOLECULE: C[C@@H]1C[C@H]2[C@@H]3CCC4=CC(=O)C=C[C@]4(C)[C@@]3(F)[C@@H](O)C[C@]2(C)[C@@]1(O)C(=O)COP(=O)(O)O
METRIC: inhibition
OBSERVED RESULT: 0.2% (inactive)
//
MOLECULE: O=C(COc1cc(O)c2c(=O)c3ccccc3oc2c1)OCc1ccccc1
METRIC: inhibition
OBSERVED RESULT: 0.2% (inactive)
//
MOLECULE: O=C(OCCN1CCOCC1)c1cccs1
METRIC: inhibition
OBSERVED RESULT: -0.9% (inactive)
//
MOLECULE: CC(C)CCn1c(N2CCc3ccccc3C2)nc2c1c(=O)[nH]c(=O)n2C
METRIC: inhibition
OBSERVED RESULT: 0.3% (inactive)
//
MOLECULE: COc1cc(C=NCC2OCCc3ccccc32)cc(OC)c1 (stereo not drawn)
METRIC: inhibition
OBSERVED RESULT: 0.3% (inactive)
//
MOLECULE: Cc1nc(NC(CC(C)C)C(=O)O)c2nc(C)oc2n1 (stereo not drawn)
METRIC: inhibition
OBSERVED RESULT: 1.1% (inactive)
//
MOLECULE: CCCCOc1ccc(C(=O)CCN2CCCCC2)cc1
METRIC: inhibition
OBSERVED RESULT: 1.8% (inactive)
//
MOLECULE: COCCCN1C(=O)C(=O)/C(=C(/O)c2ccc3c(c2)CC(C)O3)C1c1cccnc1 (stereo not drawn)
METRIC: inhibition
OBSERVED RESULT: -2.1% (inactive)
//
MOLECULE: CN(CCc1cnn(C)c1)Cc1nc(CC2CC2)no1
METRIC: inhibition
OBSERVED RESULT: 0.4% (inactive)
//
MOLECULE: CN1C2CCC1CC(OC(=O)c1ccc(Cl)cc1)C2 (stereo not drawn)
METRIC: inhibition
OBSERVED RESULT: -1.9% (inactive)
//
MOLECULE: CCOC(=O)C(=Cc1ccccc1OC)C(=O)OCC
METRIC: inhibition
OBSERVED RESULT: -2.6% (inactive)
//
MOLECULE: Cc1ccc(C2=NOC(=O)/C2=C\C=C\c2ccccc2)cc1
METRIC: inhibition
OBSERVED RESULT: 1% (inactive)
//
MOLECULE: O=C1[C@@H]2CSCN2C(=O)CN1Cc1ccc(F)cc1
METRIC: inhibition
OBSERVED RESULT: 0.7% (inactive)
//
MOLECULE: Cc1ccc2c(c1)C1CN(C)CCC1N2S(=O)(=O)c1ccc(Oc2ccc([N+](=O)[O-])cc2)cc1 (stereo not drawn)
METRIC: inhibition
OBSERVED RESULT: 0.4% (inactive)
//
MOLECULE: CC(C)C12CN3CC(C(C)C)(CN(C1)C3c1ccccc1)C2O (stereo not drawn)
METRIC: inhibition
OBSERVED RESULT: 1.2% (inactive)
//
MOLECULE: CCN(CC)CCN1C(=O)C(=O)/C(=C(/O)c2c(C)[nH]c(C(=O)OC)c2C)C1c1cccnc1 (stereo not drawn)
METRIC: inhibition
OBSERVED RESULT: -0.9% (inactive)
//
MOLECULE: CC(=O)c1ccc(-c2ccccc2)cc1
METRIC: inhibition
OBSERVED RESULT: -1.2% (inactive)
//
MOLECULE: CCOC(=O)c1c(C)oc2cc(Br)c(OC(C)C(=O)OCC)cc12 (stereo not drawn)
METRIC: inhibition
OBSERVED RESULT: 0.5% (inactive)
//
MOLECULE: CCOc1cccc(N2C(=O)CC(N(CCc3ccc(OC)c(OC)c3)C(=O)CC)C2=O)c1 (stereo not drawn)
METRIC: inhibition
OBSERVED RESULT: 0.7% (inactive)
//
MOLECULE: C(=C\c1ccc2ccccc2n1)/c1ccccc1
METRIC: inhibition
OBSERVED RESULT: 0.8% (inactive)
//
MOLECULE: O=C(Cc1ccccc1[N+](=O)[O-])NCc1ccncc1
METRIC: inhibition
OBSERVED RESULT: 0.9% (inactive)
//
MOLECULE: C/C=C(/C(=C/C)c1ccc(O)cc1)c1ccc(O)cc1
METRIC: inhibition
OBSERVED RESULT: -0.3% (inactive)
//
MOLECULE: COc1ccc(N2C(=O)C3CCCN3C2=O)cc1 (stereo not drawn)
METRIC: inhibition
OBSERVED RESULT: 0.4% (inactive)
//
MOLECULE: CC(C)(C)[C@]1(O)CCN2C[C@H]3c4ccccc4CCc4cccc(c43)[C@@H]2C1
METRIC: inhibition
OBSERVED RESULT: 0% (inactive)
//
MOLECULE: COc1ccc(C2CNC(=O)C2)cc1OC1CCCC1 (stereo not drawn)
METRIC: inhibition
OBSERVED RESULT: -0.3% (inactive)
//
MOLECULE: CC(C)(C)NC[C@H](O)COc1nsnc1N1CCOCC1
METRIC: inhibition
OBSERVED RESULT: 0% (inactive)
//
MOLECULE: CCOc1ccccc1OCCOc1ccc(F)cc1
METRIC: inhibition
OBSERVED RESULT: -1.2% (inactive)
//
MOLECULE: O=C(NC1CCCCC1)N1CCc2[nH]c3ccccc3c2C1
METRIC: inhibition
OBSERVED RESULT: 3.5% (inactive)
